# SUBJECT_OF_TEST: T1, FGFR2 C-terminal tail of the C1 isoform, untagged, labelled with Atto 488 (UniProt P21802-3 765-822, Atto 488 dye label)
# T1 construct: FGFR2 (IIIb, C1 isoform) C-terminal tail, the last 58 residues of FGFR2; numbers count on: FGFR2IIIb (C1 isoform, 822 residues); also called CT^C1; source: E. coli BL21(DE3), purified as GST fusion, GST removed with thrombin
# T1 sequence (looked up): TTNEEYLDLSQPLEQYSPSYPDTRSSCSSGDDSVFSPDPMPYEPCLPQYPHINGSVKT
# MEASUREMENT_DESCRIPTION: MST; CT labelled with Atto 488 (100 nM), 2-fold serial dilutions of JM peptides, 25 °C; 20 mM HEPES, 150 mM NaCl, 1 mM TCEP, 0.01% Tween 20, pH 7.5
# TEST_PARAMETERS: both partners purified
pKd: −log10 of the molar value.
REPORTED_ENDPOINT: pKd

Consider the worked cases shown below.
TTRLSSTADTPMLA (numbers count on: FGFR2IIIb (C1 isoform, 822 residues); source: synthetic peptide, bought: Genscript) [JM peptide 449-462] ... 4.60
VTVSAESSSSMNSN (numbers count on: FGFR2IIIb (C1 isoform, 822 residues); source: synthetic peptide, bought: Genscript) [JM peptide 429-442] ... 5.49

P: MNSNTPLVRITTRL (FGFR2 (IIIb isoform) juxtamembrane region, residues 439-452; numbers count on: FGFR2IIIb (C1 isoform, 822 residues); source: synthetic peptide, bought: Genscript) [JM peptide 439-452]
Q: KPDFSSQPAVHKLT (FGFR2 (IIIb isoform) juxtamembrane region, residues 407-420; numbers count on: FGFR2IIIb (C1 isoform, 822 residues); source: synthetic peptide, bought: Genscript) [JM peptide 407-420]
Hi! Which is lower in terms of pKd, the first one P or the second one Q ? Indicate your choice by writing its label.
P
